Target: IRAK4 kinase (Homo sapiens, UniProt Q9NWZ3)
Construct: purchased Carna 09-145
Sequence (Q9NWZ3 whole entry): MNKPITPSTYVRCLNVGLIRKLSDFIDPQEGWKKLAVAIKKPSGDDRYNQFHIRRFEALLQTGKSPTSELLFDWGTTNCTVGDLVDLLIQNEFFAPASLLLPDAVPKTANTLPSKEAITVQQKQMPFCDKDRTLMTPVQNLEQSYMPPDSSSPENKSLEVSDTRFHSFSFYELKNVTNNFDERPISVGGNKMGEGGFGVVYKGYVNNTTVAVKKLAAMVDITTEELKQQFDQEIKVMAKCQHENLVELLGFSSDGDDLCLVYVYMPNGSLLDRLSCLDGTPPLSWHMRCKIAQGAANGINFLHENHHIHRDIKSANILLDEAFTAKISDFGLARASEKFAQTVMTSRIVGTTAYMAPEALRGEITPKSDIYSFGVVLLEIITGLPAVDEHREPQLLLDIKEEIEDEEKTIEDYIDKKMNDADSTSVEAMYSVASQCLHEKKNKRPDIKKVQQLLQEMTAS
Assay: Compound inhibition of IRAK4 kinase activity (fluorescence microfluidic mobility shift assay)
Format: biochemical
Details: Table 1; 10 μM ATP, 6 nM IRAK4 kinase

[
  {
    "COMPOUND": "Cc1ncsc1-c1ccc([C@H](C)NC(=O)[C@@H]2C[C@@H](O)CN2C(=O)[C@@H](NC(=O)C2CC3(CCN(C(=O)CN4CCN(CCn5cc6cc(NC(=O)c7cccc(C(F)(F)F)n7)c(C(C)(C)O)cc6n5)C4=O)CC3)C2)C(C)(C)C)cc1",
    "IC50": "100 to 1000 nM"
  },
  {
    "COMPOUND": "CC(C)(O)c1cc2nn(CCN3CCN(CC(=O)NCCCCNc4cccc5c4C(=O)N(C4CCC(=O)NC4=O)C5=O)C3=O)cc2cc1NC(=O)c1cccc(C(F)(F)F)n1 (stereo not drawn)",
    "IC50": "100 to 1000 nM"
  },
  {
    "COMPOUND": "CC(C)(O)c1cc2nn(CCN3CCN(CC(=O)NCCOCCOCCNc4cccc5c4C(=O)N(C4CCC(=O)NC4=O)C5=O)C3=O)cc2cc1NC(=O)c1cccc(C(F)(F)F)n1 (stereo not drawn)",
    "IC50": "100 to 1000 nM"
  },
  {
    "COMPOUND": "Cc1ncsc1-c1ccc([C@H](C)NC(=O)C2C[C@@H](O)CN2C(=O)[C@@H](NC(=O)COCCNC(=O)CN2CCN(CCn3cc4cc(NC(=O)c5cccc(C(F)(F)F)n5)c(C(C)(C)O)cc4n3)C2=O)C(C)(C)C)cc1 (stereo partly drawn)",
    "IC50": "100 to 1000 nM"
  },
  {
    "COMPOUND": "CC(C)(O)c1cc2nn(CCN3CCN(CC(=O)NC4CCN(c5cccc6c5C(=O)N(C5CCC(=O)NC5=O)C6=O)CC4)C3=O)cc2cc1NC(=O)c1cccc(C(F)(F)F)n1 (stereo not drawn)",
    "IC50": "100 to 1000 nM"
  },
  {
    "COMPOUND": "CC(C)(O)c1cc2nn(CCN3CCN(CC(=O)N4CC5(CCN(c6cccc7c6C(=O)N(C6CCC(=O)NC6=O)C7=O)CC5)C4)C3=O)cc2cc1NC(=O)c1cccc(C(F)(F)F)n1 (stereo not drawn)",
    "IC50": "100 to 1000 nM"
  },
  {
    "COMPOUND": "CC(C)(O)c1cc2nn(CCN3CCN(CC(=O)N4CCC5(CC4)CN(c4cccc6c4C(=O)N(C4CCC(=O)NC4=O)C6=O)C5)C3=O)cc2cc1NC(=O)c1cccc(C(F)(F)F)n1 (stereo not drawn)",
    "IC50": "100 to 1000 nM"
  },
  {
    "COMPOUND": "COc1cc2c(cc1NC(=O)c1cccc(C(F)(F)F)n1)CN(CC(=O)N1CCC3(CC1)CCN(c1cccc4c1C(=O)N(C1CCC(=O)NC1=O)C4=O)CC3)C2=O (stereo not drawn)",
    "IC50": "100 to 1000 nM"
  },
  {
    "COMPOUND": "COc1cc2nn(CCN3CCN(CC(=O)N4CC5(CC(CC(=O)N[C@H](C(=O)N6C[C@H](O)C[C@H]6C(=O)N[C@@H](C)c6ccc(-c7scnc7C)cc6)C(C)(C)C)C5)C4)CC3)cc2cc1NC(=O)c1cccc(C(F)(F)F)n1",
    "IC50": "< 100 nM"
  },
  {
    "COMPOUND": "COc1cc2nn(CCN3CCN(CC(=O)N4CCC5(CCC(C(=O)N[C@H](C(=O)N6C[C@H](O)C[C@H]6C(=O)N[C@@H](C)c6ccc(-c7scnc7C)cc6)C(C)(C)C)CC5)CC4)CC3)cc2cc1NC(=O)c1cccc(C(F)(F)F)n1",
    "IC50": "< 100 nM"
  },
  {
    "COMPOUND": "O=C1CCC(N2C(=O)c3cccc(NCCOCCOCCOCCN4Cc5cc(NC(=O)c6cccc(C(F)(F)F)n6)c(Br)cc5C4=O)c3C2=O)C(=O)N1 (stereo not drawn)",
    "IC50": "1000 to 10000 nM"
  },
  {
    "COMPOUND": "O=C(CCCN1Cc2cc(NC(=O)c3cccc(C(F)(F)F)n3)c(Br)cc2C1=O)NCCOCCOCCNc1cccc2c1C(=O)N(C1CCC(=O)NC1=O)C2=O (stereo not drawn)",
    "IC50": "≥ 10000 nM"
  }
]
